assay.details: viability of uninfected HEp-2 cells – cell-based, HTS, cytotoxicity control for RSV inhibitor project, dose response (AID 2410)
Assay type: functional
recorded.conditions: human respiratory syncytial virus
The source made the active and inactive calls. How the calls were made is not given here.
Quick reference: CC50 of the listed items.

Worked examples, 4 molecules total:
> print(dat)
                                   molecule  reported.measurement
1  CCC1=NN2C(=N)/C(=C/c3ccc(OS(=O)(=O)c4ccccc4)cc3)C(=O)N=C2S1      > 50 µM (active)
2  COc1ccc(C2CC(c3ccccc3)=NN2c2ccc(S(N)(=O)=O)cc2)cc1OC (stereo not given)      24.2 µM (active)
3       Oc1ccc(/C=N/n2c3ccccc3c3ccccc32)cc1      17.2 µM (active)
4  O=C(CSc1nnc(-c2ccccn2)n1Cc1ccco1)c1ccc(-c2ccccc2)cc1      34.3 µM (active)

Kindly consider the entry below.
Answer with reported CC50 of O=C(Cc1cccs1)Nc1cccc(-c2nnc(-c3ccco3)o2)c1
> 12.5 µM (active)

* * *

Quick reference: AC50 of the listed items.
tgt: Paired box protein Pax-8 (Homo sapiens, UniProt Q06710)
Sequence (Q06710 whole entry): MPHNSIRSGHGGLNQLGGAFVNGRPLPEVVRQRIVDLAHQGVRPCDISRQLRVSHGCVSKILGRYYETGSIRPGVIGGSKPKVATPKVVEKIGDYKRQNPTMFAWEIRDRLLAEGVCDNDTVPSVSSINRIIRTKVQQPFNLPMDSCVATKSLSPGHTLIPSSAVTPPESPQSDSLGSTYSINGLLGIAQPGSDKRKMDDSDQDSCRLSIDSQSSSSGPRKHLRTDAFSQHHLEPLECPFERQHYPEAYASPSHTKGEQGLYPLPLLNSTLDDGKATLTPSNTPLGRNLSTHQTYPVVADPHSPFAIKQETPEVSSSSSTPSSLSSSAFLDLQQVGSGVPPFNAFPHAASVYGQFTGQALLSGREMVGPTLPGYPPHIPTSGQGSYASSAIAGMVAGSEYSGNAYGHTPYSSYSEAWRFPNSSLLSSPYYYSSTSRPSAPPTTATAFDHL
assay.details: PAX8 transcriptional activity inhibition in RMG-I – RMG-I cells, luciferase, cherry-pick, dose response (AID 687027);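 further: luciferase reporter driven by Pax8 target thyroperoxidase promoter measured by SteadyGlo luminescence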
Format: functional, cell-based
Active and inactive are the calls of the source. The rule behind the calls is not given here.

Worked examples, 4 molecules total:
> print(dat)
                           smiles.structure  reported.measurement
1  Cc1ccc(S(=O)(=O)Nc2ccc3c(c2)C(=O)N([C@H](C)CO)C[C@@H](C)[C@@H](CN(C)Cc2ccc4c(c2)OCO4)OCCCC[C@@H](C)O3)cc1        21 µM (active)
2  CCN(CC)S(=O)(=O)c1cc(NC(=O)Cn2ncc(Cl)c(Cl)c2=O)ccc1C      4.84 µM (active)
3    Cc1ccc(S(=O)(=O)CCC(=O)c2ccc(F)cc2)cc1      11.3 µM (active)
4  O=C(Nc1cccc(Cl)c1)Nc1nnc(CSCCOc2ccc(Cl)cc2)s1      5.94 µM (active)

Kindly consider the entry below.
Answer with reported AC50 of C[C@@H]1CCCCO[C@@H](CN(C)Cc2ccc(Cl)c(Cl)c2)[C@H](C)CN([C@@H](C)CO)C(=O)c2cc(NC(=O)Cc3ccccc3)ccc2O1
4.54 µM (active)

* * *

tgt: Large T antigen (Simian virus 40)
Sequence (P03070 whole entry): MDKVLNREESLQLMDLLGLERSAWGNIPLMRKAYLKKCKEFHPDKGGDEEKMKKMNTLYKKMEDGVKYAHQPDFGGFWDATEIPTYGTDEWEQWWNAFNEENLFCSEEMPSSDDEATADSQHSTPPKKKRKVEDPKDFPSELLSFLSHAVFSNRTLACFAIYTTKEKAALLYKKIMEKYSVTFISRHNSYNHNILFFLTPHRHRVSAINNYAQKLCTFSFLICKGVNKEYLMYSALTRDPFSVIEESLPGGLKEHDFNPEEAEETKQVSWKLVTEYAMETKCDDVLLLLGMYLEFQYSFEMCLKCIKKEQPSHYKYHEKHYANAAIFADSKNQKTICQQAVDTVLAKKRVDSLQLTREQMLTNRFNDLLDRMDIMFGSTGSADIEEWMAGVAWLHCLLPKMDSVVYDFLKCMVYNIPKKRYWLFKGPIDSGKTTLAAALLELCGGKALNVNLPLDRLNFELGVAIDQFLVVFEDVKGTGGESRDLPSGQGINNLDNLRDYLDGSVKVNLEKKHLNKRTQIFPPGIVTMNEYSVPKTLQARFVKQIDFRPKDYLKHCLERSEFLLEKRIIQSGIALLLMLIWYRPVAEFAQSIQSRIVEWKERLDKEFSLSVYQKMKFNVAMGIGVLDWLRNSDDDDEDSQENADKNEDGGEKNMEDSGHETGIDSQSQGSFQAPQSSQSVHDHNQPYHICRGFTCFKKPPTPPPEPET
Type: functional, Betapolyomavirus macacae
Calls of active or inactive are those of the source.
Quick reference: IC50 of the listed items.

> print(dat)
                             compound  recorded.metric  reported.measurement
1  COc1cc(CNc2ccc3c(c2)CCC3)cc(OC)c1O             IC50     > 100 µM (active)

Answer with reported IC50 of C=CCn1c(CNc2ccccc2)nnc1SCC(=O)N/N=C/c1ccc(O)cc1O
> 100 µM (active)

Answer with reported IC50 of O=C(O)/C=C/C(=O)Nc1ccc(Oc2ccc(NC(=O)/C=C/C(=O)O)cc2)cc1
> 100 µM (active)

Answer with reported IC50 of COc1ccc(CNC(=S)N/N=C/c2ccc(O)c(OC)c2)cc1
27.7 µM (active)

Answer with reported IC50 of COc1cc([C@@H]2Oc3cc(C4Oc5cc(O)cc(O)c5C(=O)[C@H]4O)ccc3O[C@H]2CO)ccc1O (stereo partly specified)
57.5 µM (active)

Answer with reported IC50 of O=C1NN(c2ccccc2)C(=O)/C1=C/c1ccc(-c2ccc(Cl)c(C(=O)O)c2)o1
17.1 µM (active)

Answer with reported IC50 of CNC(=S)N1CCN(c2ccc(OC)cc2)CC1
34 µM (active)

Answer with reported IC50 of CC(O)CCc1ccc(O)cc1 (stereo unspecified)
25.4 µM (active)

Answer with reported IC50 of O=C1N=C(NCc2ccccc2)S/C1=C/c1ccc(O)cc1
11.7 µM (active)

Answer with reported IC50 of O=Nc1c(-c2cccc([N+](=O)[O-])c2)nc2ncccn12
32.5 µM (active)

Answer with reported IC50 of Nc1ccc2[nH]c(CCCCCCCCc3nc4cc(N)ccc4[nH]3)nc2c1
18.7 µM (active)

Provenance of the data: ChEMBL document CHEMBL1201862
